src = paper PMC7285913

Test: In vitro hepatocyte assay under kinetic conditions (PTX-2 disappearance)
Type: in vitro ADME, Wistar rats
Conditions: male, Wistar, primary rat hepatocytes in suspension, pH 7.4; PTX-2 2.6 μg/mL; primary rat hepatocytes; read-out: t½,assay (converted)
measuredAttribute: half-life at 2.6 μg/mL

Enquiry: Look up half-life at 2.6 μg/mL: CC1=CC(C)CC2(C)CCC(O2)C23CCC(C)(CC(O2)C2OC(C)(CC2=O)C(O)C2CCC4(CCCC(O4)C(C)C(=O)OC4CC(C5(O)OCCC(C)C5O)OC4C=C1)O2)O3 (stereo not shown)
Return: 9.6 min

====

Experiment: In vitro hepatocyte assay under kinetic conditions (PTX-2 disappearance)
Format: in vitro ADME, Wistar rats
Details: male, Wistar, primary rat hepatocytes in suspension, pH 7.4; PTX-2 1.4 μg/mL; primary rat hepatocytes; read-out: t½,assay (converted)
measuredAttribute: half-life at 1.4 μg/mL (min)
# unit: min | format: bare number

Enquiry: Look up half-life at 1.4 μg/mL: CC1=CC(C)CC2(C)CCC(O2)C23CCC(C)(CC(O2)C2OC(C)(CC2=O)C(O)C2CCC4(CCCC(O4)C(C)C(=O)OC4CC(C5(O)OCCC(C)C5O)OC4C=C1)O2)O3 (stereo not shown)
Return: 11.4

====

Test: In vitro hepatocyte assay under kinetic conditions (PTX-2 disappearance)
Type: in vitro ADME, Wistar rats
Conditions: male, Wistar, primary rat hepatocytes in suspension, pH 7.4; PTX-2 4.8 μg/mL; primary rat hepatocytes; read-out: t½,assay (converted)
measuredAttribute: half-life at 4.8 μg/mL (min)
# unit: min | format: bare number

Enquiry: Look up half-life at 4.8 μg/mL: CC1=CC(C)CC2(C)CCC(O2)C23CCC(C)(CC(O2)C2OC(C)(CC2=O)C(O)C2CCC4(CCCC(O4)C(C)C(=O)OC4CC(C5(O)OCCC(C)C5O)OC4C=C1)O2)O3 (stereo not shown)
Return: 12
